Assay: Cytotoxicity against human MT4 cells after 5 days by MTT assay
Format: cell-based
Structures can show the parent of a compound that is named as a salt.
Property Name: CC50 at 120 h

Some solved cases for reference:
Compound	CC50 at 120 h
Cc1cc(C)c(Oc2cc(N)nc(NCCn3ccc(=O)[nH]c3=O)n2)c(C)c1	119 µM
Cc1cc(C)cc(Oc2cc(Cl)nc(NCCn3ccc(=O)[nH]c3=O)n2)c1	> 56.5 µM
Cc1cc(C)c(Oc2ccnc(NCCn3ccc(=O)[nH]c3=O)n2)c(C)c1	272 µM
Cc1cc(C)cc(Oc2cc(N)nc(NCCn3ccc(=O)[nH]c3=O)n2)c1	127 µM
Cc1cc(C)cc(Oc2ccnc(NCCn3ccc(=O)[nH]c3=O)n2)c1	74.8 µM
Cc1cn([C@H]2C[C@H](N=[N+]=[N-])[C@@H](CO)O2)c(=O)[nH]c1=O	> 7.48 µM

Identify measured CC50 at 120 h associated with CC(C)Nc1cccnc1N1CCN(C(=O)c2cc3cc(NS(C)(=O)=O)ccc3[nH]2)CC1 [DELAVIRDINE MESYLATE] 30.4 µM

Identify measured CC50 at 120 h associated with Cc1cc(C)c(Oc2cc(Cl)nc(NCCn3ccc(=O)[nH]c3=O)n2)c(C)c1 44.1 µM
